target: Delta-type opioid receptor (Homo sapiens); test: Binding affinity at human delta opioid receptor expressed in CHO cells
Sequence (P41143 whole entry): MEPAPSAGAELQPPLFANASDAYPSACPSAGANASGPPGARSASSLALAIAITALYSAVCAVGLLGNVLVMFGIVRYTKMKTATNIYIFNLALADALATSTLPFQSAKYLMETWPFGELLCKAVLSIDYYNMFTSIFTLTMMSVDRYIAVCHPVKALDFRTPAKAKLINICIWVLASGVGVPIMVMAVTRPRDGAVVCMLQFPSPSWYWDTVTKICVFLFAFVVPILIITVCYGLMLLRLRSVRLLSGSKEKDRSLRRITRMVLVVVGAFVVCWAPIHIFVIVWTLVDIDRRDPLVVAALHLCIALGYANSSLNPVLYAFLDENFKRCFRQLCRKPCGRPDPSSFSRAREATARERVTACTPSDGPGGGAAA
experimental-endpoint: pIC50
// pIC50 is dimensionless: -log10 of concentration (M)

Recorded pIC50 of COc1cccc([C@@H](c2ccc3c(c2)CN(CC(=O)O)CC3)N2C[C@@H](C)N(Cc3ccccc3)C[C@@H]2C)c1 , please. 8.30

====

molecular target: Delta-type opioid receptor (Mus musculus, UniProt P32300)
Sequence (P32300 whole entry): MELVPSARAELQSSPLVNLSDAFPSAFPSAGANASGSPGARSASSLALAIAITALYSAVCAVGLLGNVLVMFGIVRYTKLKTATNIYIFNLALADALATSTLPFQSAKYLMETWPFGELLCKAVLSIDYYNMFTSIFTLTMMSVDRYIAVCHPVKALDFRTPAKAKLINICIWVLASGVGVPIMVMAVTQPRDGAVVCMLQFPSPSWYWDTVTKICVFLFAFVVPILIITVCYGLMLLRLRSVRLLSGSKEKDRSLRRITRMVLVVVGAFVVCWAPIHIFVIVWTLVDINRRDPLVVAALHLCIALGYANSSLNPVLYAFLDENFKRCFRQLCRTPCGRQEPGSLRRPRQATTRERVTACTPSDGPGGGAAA
experimental-endpoint: IC50 (pM)
The answer is to be given in pM; state only the numeric part.

Reference set, count: 2
- entry-smiles: "C[C@@H]1CN([C@@H](c2cccc(O)c2)c2ccc3c(c2)CN(C(=O)C(=O)O)CC3)[C@@H](C)CN1Cc1ccccc1"
  experimental-endpoint: "IC50"
  result-value: 1.58
- entry-smiles: "C[C@@H]1CN([C@@H](c2cccc(O)c2)c2ccc3c(c2)CN(C(=O)c2cccc(C(=O)O)c2)C3)[C@@H](C)CN1Cc1ccccc1"
  experimental-endpoint: "IC50"
  result-value: 1580

Notebook: pull reported IC50 for Delta-type opioid receptor (Mus musculus, UniProt P32300), entry C[C@@H]1CN([C@H](c2ccc(CC(=O)O)cc2)c2cccc(O)c2)[C@@H](C)CN1Cc1ccccc1 158

Notebook: pull reported IC50 for Delta-type opioid receptor (Mus musculus, UniProt P32300), entry C[C@@H]1CN([C@@H](c2cccc(O)c2)c2ccc3c(c2)CN(CC(=O)O)CC3)[C@@H](C)CN1Cc1ccccc1 39.8
